Hello, the source for this data is ChEMBL document CHEMBL1132358, in case you need it.

- Test system: Vero
- Experiment notes: Anti-Herpes simplex virus type-1 activity in vero cells using plaque inhibition assay
- Type: functional, cell-based, Chlorocebus sabaeus
- Condition details: Chlorocebus sabaeus, Vero
Quantity measured: IC50 (nM)
Answer in nM, number only, no unit symbol.

IC50 recorded for this compound, Nc1ncnc2c1ncn2[C@@H]1O[C@H](CO)C[C@H]1O [CORDYCEPIN] , is 500

IC50 recorded for this compound, O=C(O)C1=C(C(=O)Nc2c(F)cccc2F)CCC1 , is 900

IC50 recorded for this compound, Nc1nc(N)c2nc(CO)cnc2n1 , is 160

IC50 recorded for this compound, Cc1noc(C)c1[N+](=O)[O-] , is 900

IC50 recorded for this compound, O=C(O)CCCCC(=O)O [ADIPIC ACID] , is 400

IC50 recorded for this compound, O=C(O)C1=C(C(=O)Oc2ccc(F)c(F)c2F)CCC1 , is 1800

IC50 recorded for this compound, OC[C@H]1O[C@@H](n2cnc3cncnc32)[C@H](O)[C@@H]1O [NEBULARINE] , is 600

IC50 recorded for this compound, O=C(CN1CCNCC1)N1CCCC1 , is 600

IC50 recorded for this compound, O=C(O)c1n[nH]nc1C(=O)O , is 5000

IC50 recorded for this compound, Cc1cc(=O)oc2cc(OCC(=O)O)ccc12 , is 70

IC50 recorded for this compound, O=C(O)C1=C(C(=O)Nc2cccc(F)c2F)CCC1 , is 900

IC50 recorded for this compound, O=c1[nH]cnc2c1ncn2[C@@H]1O[C@H](CO)[C@@H](O)[C@H]1O [INOSINE] , is 230

IC50 recorded for this compound, Cc1cn([C@@H]2O[C@H](CO)[C@@H](O)[C@H]2O)c(=O)nc1N , is 60

IC50 recorded for this compound, O=C(O)C1=C(C(=O)Oc2ccc(F)cc2F)CCC1 , is 1400

IC50 recorded for this compound, O=C1CN(/N=C/c2ccc([N+](=O)[O-])o2)C(=O)N1 [NITROFURANTOIN] , is 900

IC50 recorded for this compound, O=C(O)C1=C(C(=O)Nc2ccc(F)c(F)c2F)CCC1 , is 900

IC50 recorded for this compound, O=C1NC(=O)C([N+](=O)[O-])C(=O)N1 , is 1700

IC50 recorded for this compound, O=c1ccn([C@H]2C[C@H](O)[C@@H](CO)O2)c(=O)[nH]1 [DEOXYURIDINE] , is 2200

IC50 recorded for this compound, O=C(O)CCC(=O)O [SUCCINIC ACID] , is 1300

IC50 recorded for this compound, Cc1cn([C@H]2C[C@H](O)[C@@H](CO)O2)c(=O)[nH]c1=O [DOXRIBTIMINE] , is 400
